Test system: CP305
Assay: qHTS profiling for inhibitors of Plasmodium falciparum proliferation (AID 504749); note: nearly all actives have a fitted effect of over 60% in size
Details: P. falciparum in erythrocytes, SYBR Green DNA, 72 h; series mostly up to 12.8 µM
Inconclusive results are not listed. Activity calls are given as the source filed them. Calls come from the whole dose curve; as a rule, active = well fitted inhibition curve with a large enough effect; inconclusive = small, poorly fitted or top-dose-only effect; inactive = flat fitted curve, though single readings scatter.
Your reply should match one of these outcome classes. t (active), f (inactive)

Hi, sorry to bother you, what did the test record for COc1ccccc1OC[C@H](O)COC(N)=O ?
f

Hi, sorry to bother you, what did the test record for COc1cc(/C=C/C(=O)/C=C(O)/C=C/c2ccc(O)c(OC)c2)ccc1O ?
f

Hi, sorry to bother you, what did the test record for CCN(CC)CCC[C@H](C)Nc1ccnc2cc(Cl)ccc12 ?
t

Hi, sorry to bother you, what did the test record for CCCN[C@@H](C)C(=O)Nc1c(C)csc1C(=O)OC ?
f

Hi, sorry to bother you, what did the test record for CCN1C(=O)N[C@@H](c2ccccc2)C1=O ?
f

Hi, sorry to bother you, what did the test record for NS(=O)(=O)c1cc([C@@]2(O)NC(=O)c3ccccc32)ccc1Cl ?
f

Hi, sorry to bother you, what did the test record for O=C(O)/C=C\c1ccc(Cn2ccnc2)cc1 ?
f

Hi, sorry to bother you, what did the test record for CN[C@@H](CC(C)C)C(=O)N[C@@H]1C(=O)N[C@H](CC(N)=O)C(=O)N[C@@H]2C(=O)N[C@H]3C(=O)N[C@H](C(=O)N[C@H](C(=O)O)c4cc(O)cc(O)c4-c4cc3ccc4O)[C@H](O)c3ccc(c(Cl)c3)Oc3cc2cc(c3O[C@H]2O[C@@H](CO)[C@@H](O)[C@@H](O)[C@@H]2O[C@@H]2C[C@](C)(N)[C@H](O)[C@H](C)O2)Oc2ccc(cc2Cl)[C@@H]1O ?
f

Hi, sorry to bother you, what did the test record for CO[C@]1(NC(=O)CSCC#N)C(=O)N2C(C(=O)O)=C(CSc3nnnn3C)CS[C@H]21 ?
f

Hi, sorry to bother you, what did the test record for COc1ccc(C[C@@H]2c3cc(OC)c(OC)cc3CC[N@+]2(C)CCC(=O)OCCCCCOC(=O)CC[N@@+]2(C)CCc3cc(OC)c(OC)cc3[C@H]2Cc2ccc(OC)c(OC)c2)cc1OC ?
f

Hi, sorry to bother you, what did the test record for CCCN(CCC)C(=O)[C@@H](CCC(=O)O)NC(=O)c1ccccc1 ?
f

Hi, sorry to bother you, what did the test record for C[C@@H](CCc1ccccc1)NC[C@H](O)c1ccc(O)c(C(N)=O)c1 ?
f

Hi, sorry to bother you, what did the test record for CCCN[C@@H](C)C(=O)Nc1ccccc1C ?
f

Hi, sorry to bother you, what did the test record for COc1c(O)cc2c(c1O)[C@@H]1O[C@@H](CO)[C@@H](O)[C@@H](O)[C@@H]1OC2=O ?
f

Hi, sorry to bother you, what did the test record for CC(C)N1CCN(c2ccc(OC[C@@H]3CO[C@@](Cn4cncn4)(c4ccc(Cl)cc4Cl)O3)cc2)CC1 ?
f

Hi, sorry to bother you, what did the test record for CO/N=C(\C(=O)N[C@@H]1C(=O)N2C(C(=O)O)=C(COC(C)=O)CS[C@@H]12)c1csc(N)n1 ?
f
